This listing pairs compounds with measured Plant response rating, Pigweed, Palmer.
- Test system: Pigweed, Palmer (palmer amaranth, palmer pigweed, Amaranthus palmeri)
- ASSAY METHOD TEXT: Test A1 preemergence, Pigweed, Palmer
- Format: in vivo
- ASSAY CONDITIONS: 31 g ai/ha, 0 to 100 scale (0 no effect, 100 complete control)

COMPOUND	Plant response rating, Pigweed, Palmer
Cc1cc(Cl)c(NS(=O)(=O)C(F)(F)F)cc1N1CC2(CCCCC2)OC1=O [Compound 394]	20
CCC1ON=C(c2cc(N(COC(=O)C(C)(C)C)S(=O)(=O)C(F)(F)F)c(C)cc2C)C1CC (stereo not shown) [Compound 344]	50
Cc1cc(C)c(N(COC(=O)OC(C)C)S(=O)(=O)C(F)(F)F)cc1C1=NOC2CCCC12 (stereo not shown) [Compound 314]	70
CCOC(=O)N(c1cc(C(=O)N2C[C@@H](C)O[C@@H](C)C2)c(C)c(C)c1C)S(=O)(=O)C(F)(F)F [Compound 332]	60
COC1CCCN(C(=O)c2cc(NS(=O)(=O)C(F)(F)F)c(Cl)c(F)c2C)C1 (stereo not shown) [Compound 334]	20
CCc1cc(C)c(N(COC(=O)C(C)(C)C)S(=O)(=O)C(F)(F)F)cc1C1=NOC2CCCC12 (stereo not shown) [Compound 378]	0
Cc1cc(C)c(C2=NOC3OCCC23)cc1NS(=O)(=O)C(F)(F)F (stereo not shown) [Compound 349]	100
Cc1c(C2=NOC3(CCCC3)C2)cc(N(COC(=O)C(C)(C)C)S(=O)(=O)C(F)(F)F)c(C)c1C [Compound 382]	0
Cc1c(C(=O)N2CCC(F)CC2)cc(N(COC(=O)C(C)(C)C)S(=O)(=O)C(F)(F)F)c(C)c1C [Compound 361]	0
Cc1c(C(=O)N2CCC(C)CC2)cc(N(COC(=O)C(C)(C)C)S(=O)(=O)C(F)(F)F)c(C)c1C [Compound 369]	0
